test: Total plasma pharmacokinetics of gepotidacin in healthy and E. coli infected rats; format: in vivo, rat; conditions: healthy rats (n = 9), IV bolus 20 mg/kg
assay metric: AUC (ng·h/mL)
Numbers only; they are read as ng·h/mL.

(Q) Recorded AUC for O=c1ccc2ncc(=O)n3c2n1C[C@H]3CN1CCC(NCc2cc3c(cn2)OCCC3)CC1 , please?
(A) 6750

====

assay: Total plasma pharmacokinetics of gepotidacin in healthy and E. coli infected rats; assay type: in vivo, rat; settings: rat, plasma, iv, 20 mg/kg, healthy rats (n = 9), IV bolus 20 mg/kg
assay metric: Vd

(Q) Recorded Vd for O=c1ccc2ncc(=O)n3c2n1C[C@H]3CN1CCC(NCc2cc3c(cn2)OCCC3)CC1 [gepotidacin] , please?
(A) 4.26 L/kg

====

experiment: Total plasma pharmacokinetics of gepotidacin in healthy and E. coli infected rats; format: in vivo, rat; details: rat, plasma, iv, 20 mg/kg, infected rats (n = 11; E. coli ATCC 13441 prostatitis), IV bolus 20 mg/kg
assay metric: half-life (h)
Numbers only; they are read as h.

(Q) Recorded half-life for O=c1ccc2ncc(=O)n3c2n1C[C@H]3CN1CCC(NCc2cc3c(cn2)OCCC3)CC1 , please?
(A) 1.27

====

test: Total plasma pharmacokinetics of gepotidacin in healthy and E. coli infected rats; format: in vivo, rat; details: rat, plasma, iv, 20 mg/kg, healthy rats (n = 9), IV bolus 20 mg/kg, read-out: CLt,plasma
assay metric: clearance (mL/min/kg)
Numbers only; they are read as mL/min/kg.

(Q) Recorded clearance for O=c1ccc2ncc(=O)n3c2n1C[C@H]3CN1CCC(NCc2cc3c(cn2)OCCC3)CC1 [gepotidacin] , please?
(A) 50.3

====

experiment: Total plasma pharmacokinetics of gepotidacin in healthy and E. coli infected rats; type: in vivo, rat; settings: rat, plasma, iv, 20 mg/kg, healthy rats (n = 9), IV bolus 20 mg/kg
assay metric: half-life (h)
Numbers only; they are read as h.

(Q) Recorded half-life for O=c1ccc2ncc(=O)n3c2n1C[C@H]3CN1CCC(NCc2cc3c(cn2)OCCC3)CC1 , please?
(A) 1.2

====

Assay: Total plasma pharmacokinetics of gepotidacin in healthy and E. coli infected rats
Assay type: in vivo, rat
Details: infected rats (n = 11; E. coli ATCC 13441 prostatitis), IV bolus 20 mg/kg
Procedure: An Escherichia coli prostatitis model in rats was obtained as follows. Four days before microdialysis, rats (n=11) were infected with Escherichia coli ATCC 13441 in the prostatic urethra, to induce E. coli prostatitis, at an inoculum of 10^7 CFU/rat. […] On the day of the experiment, healthy control and infected rats were re-anesthetized and a CMA/20 Elite probe (membrane length 4 mm) was inserted into the prostate. […] Gepotidacin concentrations were measured in dialysates and in plasma by LC-MS/MS. […]
assay metric: AUC

(Q) Recorded AUC for O=c1ccc2ncc(=O)n3c2n1C[C@H]3CN1CCC(NCc2cc3c(cn2)OCCC3)CC1 , please?
(A) 7870 ng·h/mL

====

assay: In vivo microdialysis of unbound gepotidacin in blood, muscle and prostate of healthy and E. coli infected rats; set-up: species or system rat; settings: rat, muscle, iv, 20 mg/kg, infected rats (n = 11; E. coli ATCC 13441 prostatitis), unbound, IV bolus 20 mg/kg; read-out: AUCu muscle/blood
assay metric: Kp uu

(Q) Recorded Kp uu for O=c1ccc2ncc(=O)n3c2n1C[C@H]3CN1CCC(NCc2cc3c(cn2)OCCC3)CC1 , please?
(A) 1.03

====

assay: In vivo microdialysis of unbound gepotidacin in blood, muscle and prostate of healthy and E. coli infected rats; set-up: species or system rat; details: rat, muscle, iv, 20 mg/kg, healthy rats (n = 9), unbound, IV bolus 20 mg/kg; read-out: AUCu muscle/blood
assay metric: Kp uu

(Q) Recorded Kp uu for O=c1ccc2ncc(=O)n3c2n1C[C@H]3CN1CCC(NCc2cc3c(cn2)OCCC3)CC1 [gepotidacin] , please?
(A) 1.06

====

test: In vivo microdialysis of unbound gepotidacin in blood, muscle and prostate of healthy and E. coli infected rats; set-up: species or system rat; details: rat, prostate, iv, 20 mg/kg, healthy rats (n = 9), unbound, IV bolus 20 mg/kg; read-out: AUCu prostate/blood
assay metric: Kp uu

(Q) Recorded Kp uu for O=c1ccc2ncc(=O)n3c2n1C[C@H]3CN1CCC(NCc2cc3c(cn2)OCCC3)CC1 [gepotidacin] , please?
(A) 0.89

Origin of measurements: patent US20260335310A1
